test: Neurotoxicity against Swiss mouse after 4 hrs by rotarod ataxia test; format: toxicity, organism-based; settings: in vivo
readout label: TD50 at 4 h

Lookup: Give its TD50 at 4 h value. Item: `CCCCCOc1ccc2c(c1)CCCc1n[nH]c(=O)n1-2`
Found: > 1120 mg/kg

Lookup: Give its TD50 at 4 h value. Item: `O=c1[nH]nc2n1-c1ccc(OCc3ccccc3Cl)cc1CCC2`
Found: > 931 mg/kg

Lookup: Give its TD50 at 4 h value. Item: `O=c1[nH]nc2n1-c1ccc(OCc3ccccc3F)cc1CCC2`
Found: > 931 mg/kg

Lookup: Give its TD50 at 4 h value. Item: `CCCCOc1ccc2c(c1)CCCc1n[nH]c(=O)n1-2`
Found: > 1120 mg/kg

Lookup: Give its TD50 at 4 h value. Item: `O=c1[nH]nc2n1-c1ccc(OCc3ccc(Br)cc3)cc1CCC2`
Found: > 931 mg/kg

Lookup: Give its TD50 at 4 h value. Item: NC(=O)N1c2ccccc2C=Cc2ccccc21 [CARBAMAZEPINE]
Found: 74.4 mg/kg

Lookup: Give its TD50 at 4 h value. Item: `CCCOc1ccc2c(c1)CCCc1n[nH]c(=O)n1-2`
Found: > 931 mg/kg

Lookup: Give its TD50 at 4 h value. Item: `Cc1ccc(COc2ccc3c(c2)CCCc2n[nH]c(=O)n2-3)cc1`
Found: > 931 mg/kg

Lookup: Give its TD50 at 4 h value. Item: `O=c1[nH]nc2n1-c1ccc(OCc3ccc(Cl)cc3)cc1CCC2`
Found: > 931 mg/kg

Lookup: Give its TD50 at 4 h value. Item: `O=c1[nH]nc2n1-c1ccc(OCc3ccccc3)cc1CCC2`
Found: > 931 mg/kg

Lookup: Give its TD50 at 4 h value. Item: `CCCCCCCOc1ccc2c(c1)CCCc1n[nH]c(=O)n1-2`
Found: > 1120 mg/kg

Lookup: Give its TD50 at 4 h value. Item: `O=c1[nH]nc2n1-c1ccc(OCc3ccc(F)cc3)cc1CCC2`
Found: > 931 mg/kg

Lookup: Give its TD50 at 4 h value. Item: `CCCCCCOc1ccc2c(c1)CCCc1n[nH]c(=O)n1-2`
Found: > 1120 mg/kg

Lookup: Give its TD50 at 4 h value. Item: `O=c1[nH]nc2n1-c1ccc(OCc3cccc(Cl)c3)cc1CCC2`
Found: > 931 mg/kg

Lookup: Give its TD50 at 4 h value. Item: `O=c1[nH]nc2n1-c1ccc(OCc3cccc(F)c3)cc1CCC2`
Found: > 931 mg/kg

Lookup: Give its TD50 at 4 h value. Item: `CCCCCCCCOc1ccc2c(c1)CCCc1n[nH]c(=O)n1-2`
Found: > 1120 mg/kg
